molecular target: SARS-CoV-2 S protein RBD RBD (Severe acute respiratory syndrome coronavirus 2), P0DTC2; conditions: modification not given
value.kind: Kd (µM)
Just the number in µM, nothing appended.

Query string: What value of Kd has been reported for the following binder? NCGDKWSAFLKEQSTLAQMYPLQE [900h2 (64-87)]
Result string: 7.22
